Kindly state melting point for each of the entries shown.

Sample answers from the record:
Form field melting point, entry COC(=O)CNC(=O)c1ccc(-c2ccc(-c3ccccc3)cc2)s1 : 183 to 185 °C

Form field melting point, entry COC(=O)[C@H](Cc1ccc(O)cc1)NC(=O)c1cc(-c2ccccc2)cs1 : 176 to 178 °C

Form field melting point, entry COC(=O)CNC(=O)c1cc(-c2ccccc2)cs1 : 93 to 96 °C

Go through the list and state melting point for each entry.
1. COC(=O)[C@@H](Cc1c[nH]c2ccccc12)NC(=O)c1cc(-c2ccccc2)cs1
2. CCOC(=O)[C@H](Cc1ccccc1)NC(=O)c1cc(-c2ccccc2)cs1

1: 145 to 149 °C; 2: 94 to 96 °C

Form field melting point, entry COC(=O)[C@H](Cc1c[nH]c2ccccc12)NC(=O)c1cc(-c2ccccc2)cs1 : 150 to 152 °C
